Origin of the recorded values: patent US8163909B2

# measuredTarget: CYP3A4 (CYP3A) (Homo sapiens);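 also: inhibition of CYP3A-mediated 1-hydroxymidazolam formation after 10 min incubation with NADPH, quantified by HPLC MS relative to metabolite produced without test compound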
# Sequence (P08684 2-503): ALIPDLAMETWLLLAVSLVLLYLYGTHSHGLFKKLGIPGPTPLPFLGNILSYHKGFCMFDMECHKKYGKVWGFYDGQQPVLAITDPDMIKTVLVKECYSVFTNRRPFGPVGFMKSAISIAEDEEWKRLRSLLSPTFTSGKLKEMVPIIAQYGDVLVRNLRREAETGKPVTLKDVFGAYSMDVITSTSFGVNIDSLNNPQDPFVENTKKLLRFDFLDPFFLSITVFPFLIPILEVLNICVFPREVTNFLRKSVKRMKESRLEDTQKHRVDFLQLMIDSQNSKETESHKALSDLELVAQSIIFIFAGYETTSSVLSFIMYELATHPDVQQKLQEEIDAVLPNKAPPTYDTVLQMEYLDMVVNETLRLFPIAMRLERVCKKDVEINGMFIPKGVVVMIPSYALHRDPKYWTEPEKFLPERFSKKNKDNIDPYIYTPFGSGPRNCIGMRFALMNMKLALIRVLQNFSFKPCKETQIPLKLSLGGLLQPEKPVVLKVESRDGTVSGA
# assayRemarks: in vitro
# testSettings: microsomes, pH 7.4

[
  {
    "structureAsSmiles": "COCC(=O)N[C@@H](Cc1cc(F)cc(F)c1)[C@H](O)CN[C@H]1CC2(CCC2)Oc2c(-c3cncs3)cc(CC(C)(C)C)cc21",
    "unitName": "nM",
    "IC50": 200
  },
  {
    "structureAsSmiles": "CO[C@H](C)C(=O)N[C@@H](Cc1ccc(F)c(-c2nccs2)c1)[C@H](O)CN[C@H]1CC2(CCC2)Oc2ncc(CC(C)C)cc21",
    "unitName": "nM",
    "IC50": 100
  },
  {
    "structureAsSmiles": "COCC(=O)N[C@@H](Cc1cccc(-c2nccs2)c1)[C@H](O)CN[C@H]1CC2(CCC2)Oc2ncc([C@@H]3CC3(C)C)cc21",
    "unitName": "nM",
    "IC50": 100
  }
]

---

Below, each entry is listed alongside its reported IC50.
# measuredTarget: CYP2D6 (Homo sapiens, UniProt P10635)
# Sequence (P10635 whole entry): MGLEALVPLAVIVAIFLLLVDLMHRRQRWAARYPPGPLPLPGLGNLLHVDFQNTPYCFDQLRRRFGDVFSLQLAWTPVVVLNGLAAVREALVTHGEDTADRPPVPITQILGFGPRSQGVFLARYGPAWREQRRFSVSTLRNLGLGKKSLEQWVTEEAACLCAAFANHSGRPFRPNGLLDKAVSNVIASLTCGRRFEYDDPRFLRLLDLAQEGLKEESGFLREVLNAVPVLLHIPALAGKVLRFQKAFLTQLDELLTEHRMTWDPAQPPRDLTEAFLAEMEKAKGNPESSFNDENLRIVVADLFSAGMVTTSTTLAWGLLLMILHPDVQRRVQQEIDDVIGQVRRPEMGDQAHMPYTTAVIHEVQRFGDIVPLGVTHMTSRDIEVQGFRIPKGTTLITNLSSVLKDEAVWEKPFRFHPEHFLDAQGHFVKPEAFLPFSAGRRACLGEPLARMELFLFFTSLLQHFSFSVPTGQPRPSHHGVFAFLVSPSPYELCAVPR
# assayRemarks: CYP2D6 inhibition assay (bufuralol, pooled human liver microsomes)
# testSettings: 2D6 IC50 (uM), CYP2D6 inhibition

[
  {
    "compound": "CO[C@H](C)C(=O)N[C@@H](Cc1cc(F)cc(-c2nccs2)c1)[C@H](O)CN[C@H]1CC2(CCC2)Oc2c1cc(CC(C)C)nc2Cl",
    "comparator": "=",
    "IC50 / µM": 1.3
  },
  {
    "compound": "Cc1csc(CN2CCO[C@H](C(=O)N[C@@H](Cc3ccc(F)cc3)[C@H](O)CN[C@H]3CC4(CCC4)Oc4ncc(CC(C)(C)C)cc43)C2)n1",
    "comparator": "=",
    "IC50 / µM": 2.4
  },
  {
    "compound": "COCC(=O)N[C@@H](Cc1ccc(F)cc1)[C@H](O)CN[C@H]1CC2(CCNC2)Oc2cnc(CC(C)(C)C)cc21 (stereo partly drawn)",
    "comparator": "≥",
    "IC50 / µM": 27
  },
  {
    "compound": "CN1CCO[C@H](C(=O)N[C@@H](Cc2ccc(F)cc2)[C@H](O)CN[C@H]2CC3(CCC3)Oc3ncc(CC(C)(C)C)cc32)C1",
    "comparator": "=",
    "IC50 / µM": 11.2
  },
  {
    "compound": "CO[C@H](C)C(=O)N[C@@H](Cc1cc(F)cc(-c2nccs2)c1)[C@H](O)CN[C@H]1CC2(CCC2)Oc2cnc(CC(C)(C)F)cc21",
    "comparator": "=",
    "IC50 / µM": 0.5
  },
  {
    "compound": "COCC(=O)N[C@@H](Cc1ccc(F)c(-c2nccs2)c1)[C@H](O)CN[C@H]1CC2(CCC2)Oc2ncc(CC(C)C)cc21",
    "comparator": "=",
    "IC50 / µM": 0.5
  }
]

---

# measuredTarget: Beta Secretase enzyme (BACE) (Homo sapiens, UniProt P56817)
# Sequence (P56817 46-501): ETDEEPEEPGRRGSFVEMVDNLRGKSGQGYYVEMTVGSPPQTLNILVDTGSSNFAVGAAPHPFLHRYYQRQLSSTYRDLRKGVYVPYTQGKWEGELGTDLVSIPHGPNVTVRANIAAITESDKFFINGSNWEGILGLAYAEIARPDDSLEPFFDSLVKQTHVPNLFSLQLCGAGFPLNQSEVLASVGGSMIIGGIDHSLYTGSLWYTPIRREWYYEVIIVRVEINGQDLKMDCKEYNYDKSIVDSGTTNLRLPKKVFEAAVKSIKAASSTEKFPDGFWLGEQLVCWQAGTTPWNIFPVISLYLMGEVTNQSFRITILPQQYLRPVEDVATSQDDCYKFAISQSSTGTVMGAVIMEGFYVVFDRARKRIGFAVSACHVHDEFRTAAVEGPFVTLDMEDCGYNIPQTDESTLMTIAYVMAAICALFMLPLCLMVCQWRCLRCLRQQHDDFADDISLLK
# assayRemarks: In vitro enzymatic BACE FRET (fluorescence resonance energy transfer) assay;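 also: fluorescence read after 1 h with 50 nM quenched peptide substrate spanning the BACE cleavage site, in pH 4.2 acetate buffer containing 10% DMSO and nonionic detergent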
# Type: biochemical
# testSettings: BACE enzyme assay; read-out: BACE1 FRET assay (IC50)
endpoint: IC50 (nM)

[
  {
    "compound": "CC(=O)N[C@@H](Cc1ccc2c(c1)OCO2)[C@H](O)CN[C@H]1CC2(CCC2)Oc2ncc([C@H](F)C(C)(C)C)cc21",
    "endpoint": "IC50",
    "observed": 7.01
  },
  {
    "compound": "CO[C@@H](C)C(=O)N[C@@H](Cc1ccc(F)cc1)[C@H](O)CN[C@H]1CC2(CCC2)Oc2ncc(CC(C)(C)C)cc21",
    "endpoint": "IC50",
    "observed": 40.1
  },
  {
    "compound": "COCC(=O)N[C@@H](Cc1ccc2c(c1)OCO2)[C@H](O)CN[C@H]1CC2(CCC2)Oc2c1cc(CC(C)(C)C)nc2N",
    "endpoint": "IC50",
    "observed": 119
  },
  {
    "compound": "COCC(=O)NC(Cc1ccc2c(c1)OCO2)C(O)CNC1CC2(CC(C)C2)Oc2ncc(CC(C)C)cc21 (centres unmarked)",
    "endpoint": "IC50",
    "observed": 39.8
  },
  {
    "compound": "CC(=O)N[C@@H](Cc1ccc(F)cc1)[C@H](O)CN[C@H]1C[C@]2(CC[C@@H]2O)Oc2ncc(CC(C)(C)C)cc21",
    "endpoint": "IC50",
    "observed": 7.85
  },
  {
    "compound": "CC(=O)N[C@@H](Cc1ccc(F)cc1)[C@H](O)CN[C@H]1CC2(CCC2)Oc2ncc(NC(=O)C(C)(C)C)cc21",
    "endpoint": "IC50",
    "observed": 4870
  },
  {
    "compound": "CC(=O)N[C@@H](Cc1ccc2c(c1)OCO2)[C@H](O)CN[C@H]1CC2(CC(F)(F)C2)Oc2ncc(CC(C)(C)C)cc21",
    "endpoint": "IC50",
    "observed": 23.6
  },
  {
    "compound": "CC(=O)N[C@@H](Cc1ccc(F)cc1)[C@H](O)CN[C@H]1CC2(CCC2)Oc2c(F)cc(CC(C)(C)C#N)cc21",
    "endpoint": "IC50",
    "observed": 15.9
  },
  {
    "compound": "COC(C)C(=O)NC(Cc1ccc(F)cc1)C(O)CNC1CC2(CCC2)Oc2ncc(CC(C)(C)C)cc21 (centres unmarked)",
    "endpoint": "IC50",
    "observed": 13.2
  },
  {
    "compound": "CNc1nc(CC(C)(C)C)cc2c1OC1(CCC1)C[C@@H]2N(C)C[C@@H](O)[C@H](Cc1ccc(F)cc1)NC(=O)[C@@H](C)OC",
    "endpoint": "IC50",
    "observed": 178
  },
  {
    "compound": "C=CC[C@H](NC(=O)COC)[C@H](O)CN[C@H]1CC2(CCC2)Oc2cnc(CC(C)(C)C)cc21",
    "endpoint": "IC50",
    "observed": 745
  }
]
